- System: Crude diglycosidase
- TEST_DESCRIPTION: Examination of temperature in the conversion into isoflavone aglycons by diglycosidase using soybean materials
- Format: biochemical, Penicillium multicolor IAM7153
- SETUP_CONDITIONS: 30 °C; heat treatment of enzyme: no; 1 h
Below, each of the compounds is paired with its reported Decomposition efficiency of glycitin family in concentrated soybean protein value.
Provide only the numeric value, understood in %.

In plain terms, COc1cc2c(=O)c(-c3ccc(O)cc3)coc2cc1O[C@@H]1O[C@H](COC(C)=O)[C@@H](O)[C@H](O)[C@H]1O [acetylglycitin, 6″-O-acetylglycitin] has a documented Decomposition efficiency of glycitin family in concentrated soybean protein of 35.0

###

- Test system: Crude diglycosidase
- TEST_DESCRIPTION: Examination of substrate concentration in the conversion into isoflavone aglycons by diglycosidase using soybean materials;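 note: percent of the isoflavone family total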
- Format: biochemical, Penicillium multicolor IAM7153
- SETUP_CONDITIONS: roasted soy flour, substrate concentration 30%, heat treatment of enzyme no, reaction time 6 h
PROPERTY_NAME: Decomposition efficiency: ratio of each glycoside/aglycon within its isoflavone family (%)
Express it in %; write the number only.

Worked cases, answers included:
>  <SMILES_REPRESENTATION>
CC(=O)OC[C@H]1O[C@@H](Oc2cc(O)c3c(=O)c(-c4ccc(O)cc4)coc3c2)[C@H](O)[C@@H](O)[C@@H]1O

>  <MEASURED_RESULT>
37.8

$$$$
>  <SMILES_REPRESENTATION>
CC(=O)OC[C@H]1O[C@@H](Oc2ccc3c(=O)c(-c4ccc(O)cc4)coc3c2)[C@H](O)[C@@H](O)[C@@H]1O

>  <MEASURED_RESULT>
34.3

$$$$
>  <SMILES_REPRESENTATION>
O=c1c(-c2ccc(O)cc2)coc2cc(O[C@@H]3O[C@H](CO)[C@@H](O)[C@H](O)[C@H]3O)cc(O)c12

>  <MEASURED_RESULT>
2.0

$$$$

Data point: `COc1cc2c(=O)c(-c3ccc(O)cc3)coc2cc1O` ; Decomposition efficiency: ratio of each glycoside/aglycon within its isoflavone family = 86.3

The compound listed as `COc1cc2c(=O)c(-c3ccc(O)cc3)coc2cc1O[C@@H]1O[C@H](COC(C)=O)[C@@H](O)[C@H](O)[C@H]1O` shows Decomposition efficiency: ratio of each glycoside/aglycon within its isoflavone family equal to 13.7

###

- Test system: Crude diglycosidase
- TEST_DESCRIPTION: Examination of substrate concentration in the conversion into isoflavone aglycons by diglycosidase using soybean materials;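 note: percent of the isoflavone family total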
- Assay type: biochemical, Penicillium multicolor IAM7153
- SETUP_CONDITIONS: soymilk, substrate concentration 2%, heat treatment of enzyme no, reaction time 6 h
Listing of recorded Decomposition efficiency: ratio of each glycoside/aglycon within its isoflavone family by entry.
Answer format: numeric, % implied, no suffix.

>  <COMPOUND>
O=C(O)CC(=O)OC[C@H]1O[C@@H](Oc2cc(O)c3c(=O)c(-c4ccc(O)cc4)coc3c2)[C@H](O)[C@@H](O)[C@@H]1O [malonylgenistin, 6″-O-malonylgenistin]

>  <UNITS_OF_MEASURE>
%

>  <MEASURED_RESULT>
0.0

$$$$

Read the next record carefully.
Recorded Decomposition efficiency: ratio of each glycoside/aglycon within its isoflavone family for COc1cc2c(=O)c(-c3ccc(O)cc3)coc2cc1O [glycitein] on Crude diglycosidase was 100.0
